Source listed as ChEMBL document CHEMBL1144590.

subject_of_test: Vascular endothelial growth factor receptor 2 (Homo sapiens, UniProt P35968)
Sequence (P35968 whole entry): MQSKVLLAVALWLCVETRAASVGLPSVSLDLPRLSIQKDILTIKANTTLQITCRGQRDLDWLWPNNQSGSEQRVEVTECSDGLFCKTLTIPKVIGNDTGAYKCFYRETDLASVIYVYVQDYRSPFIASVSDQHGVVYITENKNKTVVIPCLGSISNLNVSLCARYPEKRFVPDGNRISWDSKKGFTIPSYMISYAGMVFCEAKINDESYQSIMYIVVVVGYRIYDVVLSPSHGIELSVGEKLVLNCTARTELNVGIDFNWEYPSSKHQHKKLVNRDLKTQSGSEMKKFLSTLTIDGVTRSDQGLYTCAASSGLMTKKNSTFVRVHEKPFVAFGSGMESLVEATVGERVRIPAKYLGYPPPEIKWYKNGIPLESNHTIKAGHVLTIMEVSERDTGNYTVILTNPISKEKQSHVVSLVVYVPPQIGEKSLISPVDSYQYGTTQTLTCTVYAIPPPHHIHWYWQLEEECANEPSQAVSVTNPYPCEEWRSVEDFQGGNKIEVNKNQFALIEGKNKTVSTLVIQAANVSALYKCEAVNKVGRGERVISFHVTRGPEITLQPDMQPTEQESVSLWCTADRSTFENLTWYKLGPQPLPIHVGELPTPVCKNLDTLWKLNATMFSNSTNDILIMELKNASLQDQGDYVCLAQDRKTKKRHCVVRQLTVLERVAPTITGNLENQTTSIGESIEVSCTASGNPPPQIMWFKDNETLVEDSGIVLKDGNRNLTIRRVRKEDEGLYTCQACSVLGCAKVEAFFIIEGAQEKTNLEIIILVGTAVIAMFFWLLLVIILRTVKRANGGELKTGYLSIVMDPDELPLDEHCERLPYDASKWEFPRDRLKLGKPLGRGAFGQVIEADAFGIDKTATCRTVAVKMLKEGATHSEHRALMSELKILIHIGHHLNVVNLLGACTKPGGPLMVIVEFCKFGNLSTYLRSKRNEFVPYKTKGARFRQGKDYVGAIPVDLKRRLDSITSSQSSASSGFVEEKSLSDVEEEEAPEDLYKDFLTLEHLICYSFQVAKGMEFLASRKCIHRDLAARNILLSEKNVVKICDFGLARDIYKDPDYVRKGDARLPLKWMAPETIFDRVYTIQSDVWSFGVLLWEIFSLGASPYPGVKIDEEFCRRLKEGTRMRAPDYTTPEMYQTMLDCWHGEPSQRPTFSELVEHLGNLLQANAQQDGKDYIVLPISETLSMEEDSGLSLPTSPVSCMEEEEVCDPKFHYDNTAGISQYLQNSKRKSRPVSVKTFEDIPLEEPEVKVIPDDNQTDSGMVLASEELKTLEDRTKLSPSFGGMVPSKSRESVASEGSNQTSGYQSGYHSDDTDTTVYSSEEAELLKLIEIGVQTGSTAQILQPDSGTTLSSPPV
endpoint_name: IC50 (nM)

Cc1cccc(CC(=O)Nc2ccc(-c3csc4ccnc(N)c34)cc2)c1 520
Cc1cccc(NC(=O)Cc2ccc(-c3csc4ccnc(N)c34)cc2)c1 94
Cc1ccc(NC(=O)Nc2ccc(-c3csc4ccnc(N)c34)cc2)cc1C 10

1. Nc1nccc2scc(-c3ccc(NC(=O)Nc4cccs4)cc3)c12
2. Nc1nccc2scc(-c3ccc(NC(=O)NC4CCCC4)cc3)c12
Query: Choose between 1 and 2 : whose measured IC50 value is numerically larger? In your reply, give the label of the chosen option.
Reply: 2
(2: 420 nM, 1: 30 nM)

====

Data export: IC50 values recorded with Vascular endothelial growth factor receptor 2 (Homo sapiens, UniProt P35968).
endpoint_name: IC50 (nM)

I. CCc1cccc(NC(=O)Nc2ccc(-c3csc4ccnc(N)c34)cc2)c1
II. Cc1cccc(N(C)C(=O)Nc2ccc(-c3csc4ccnc(N)c34)cc2)c1
III. CNC(=O)c1cccc(-c2cnc(N)c3c(-c4ccc(NC(=O)Nc5cccc(C)c5)cc4)csc23)c1
IV. Nc1nccc2scc(-c3ccc(NC(=O)Nc4ccsc4)cc3)c12
Query: // ranking: key=IC50, reverse=True Write the labels, ordered according to the request.
Reply: II, IV, I, III
